- EXPERIMENT_NOTES: Phase 1 MAD plasma PK in healthy volunteers
- Assay type: in vivo, human
- MEASUREMENT_CONDITIONS: human, plasma, oral; healthy volunteers; read-out: half-life, range observed in MAD
RECORDED_ENDPOINT: half-life

q: Would you kindly share the measured half-life for Cn1c(=O)n([C@@H]2CCC(=O)NC2=O)c2cccc(C#CCOC3CCN(C[C@H]4CC[C@H](n5cc(NC(=O)c6cnn7ccc(N8C[C@H]9C[C@@H]8CO9)nc67)c(C(F)F)n5)CC4)CC3)c21 ?
a: 2040 to 3540 min

* * *

- EXPERIMENT_NOTES: clinical
- MEASUREMENT_CONDITIONS: human, in vivo, po, 75 mg
- Source text: The safety margin decreases as the dose increases.
RECORDED_ENDPOINT: half-life

q: Would you kindly share the measured half-life for Cn1c(=O)n([C@@H]2CCC(=O)NC2=O)c2cccc(C#CCOC3CCN(C[C@H]4CC[C@H](n5cc(NC(=O)c6cnn7ccc(N8C[C@H]9C[C@@H]8CO9)nc67)c(C(F)F)n5)CC4)CC3)c21 ?
a: 1720 min
